All figures here come from paper PMC5303205.

Experiment: Multi-component pharmacokinetics of AAs in rats after oral administration of AF and HAF extracts (HPLC-MS/MS of plasma)
Set-up: species or system Sprague–Dawley (SD) rats
Conditions: Sprague-Dawley, rat, in vivo, 8 mg/kg, HAF extract, mid dose (8.0 mg/kg as AA I), analyte dose mg/kg: AA I 8.0, AA II 0.69, AA C 4.09, AA D 4.03, 7-OH AA I 6.62, n = 6, read-out: t 1/2z (converted)

{"columns": ["MOLECULE", "half-life"],
 "data": [
  ["O=C(O)c1cc2c(c3c1c([N+](=O)[O-])cc1ccccc13)OCO2 [AA II]", "4.95 h"],
  ["COc1cc(O)cc2c1cc([N+](=O)[O-])c1c(C(=O)O)cc3c(c12)OCO3 [AA D]", "2.3 h"],
  ["COc1c(O)ccc2c1cc([N+](=O)[O-])c1c(C(=O)O)cc3c(c12)OCO3 [7-OH AA I]", "2.55 h"],
  ["COc1cccc2c1cc([N+](=O)[O-])c1c(C(=O)O)cc3c(c12)OCO3 [AA I]", "4.72 h"]
]}
